Target: DDR1 (Mus musculus)
Construct: expressed in transfected cells; host or cells: HEK293T
Sequence (Q03146 20-911): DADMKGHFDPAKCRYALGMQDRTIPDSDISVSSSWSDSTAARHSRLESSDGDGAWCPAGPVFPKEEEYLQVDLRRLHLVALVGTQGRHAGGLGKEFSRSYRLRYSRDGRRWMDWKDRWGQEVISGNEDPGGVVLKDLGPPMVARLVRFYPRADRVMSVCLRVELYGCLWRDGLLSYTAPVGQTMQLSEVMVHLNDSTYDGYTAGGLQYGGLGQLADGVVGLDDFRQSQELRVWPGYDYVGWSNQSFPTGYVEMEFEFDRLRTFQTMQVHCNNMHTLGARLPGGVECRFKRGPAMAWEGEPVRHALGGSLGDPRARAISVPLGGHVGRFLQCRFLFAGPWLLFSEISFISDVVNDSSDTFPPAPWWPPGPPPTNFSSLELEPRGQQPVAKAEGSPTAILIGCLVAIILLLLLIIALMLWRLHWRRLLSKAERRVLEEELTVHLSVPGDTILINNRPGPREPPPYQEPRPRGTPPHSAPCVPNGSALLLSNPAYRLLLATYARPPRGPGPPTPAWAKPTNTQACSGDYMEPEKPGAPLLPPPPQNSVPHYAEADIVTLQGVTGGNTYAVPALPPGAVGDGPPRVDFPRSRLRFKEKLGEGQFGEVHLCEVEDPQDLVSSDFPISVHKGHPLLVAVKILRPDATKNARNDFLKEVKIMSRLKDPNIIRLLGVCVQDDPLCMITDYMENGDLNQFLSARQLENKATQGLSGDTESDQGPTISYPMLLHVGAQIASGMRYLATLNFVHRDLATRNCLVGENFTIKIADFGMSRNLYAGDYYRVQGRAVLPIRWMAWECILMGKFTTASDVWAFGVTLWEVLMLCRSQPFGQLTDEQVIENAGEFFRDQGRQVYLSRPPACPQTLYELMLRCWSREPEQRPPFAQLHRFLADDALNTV
Assay: Cellular assay: inhibition of Collagen I-induced DDR1 autophosphorylation in HEK293T cells transiently transfected with DDR1 plasmid (Western blot)
Format: cell-based, human
Conditions: pcDNA3.1 DDR1 WT mouse plasmid, compound 1 h, then 10 µg/mL Collagen I 1 h, P-DDR1 (Y513), read-out: pDDR1 EC50
Protocol: DDR1/2 cellular assay: Transient transfection of HEK293T cells with DDR1 plasmid is used to study the inhibition of the autophosphorylation of DDR1 induced by Collagen I in cells. HEK293T are seeded, 6x10^5 cells per well in 6-well plates and incubated for 6 h at 37 °C, 5% CO2. […] The protein content of the lysates is determined by DC protein assay (Biorad, Ref. 5000116). […] The bands are visualized and quantified using an Odyssey infrared imaging system (Li-Cor Biosciences). […]
pEC50: −log10 of the molar value.
MEASURE: pEC50

{"SMILES CODE": "NS(=O)(=O)c1cccc(Nc2nccc(-c3sc4nccc(=O)n4c3-c3ccc(Cl)cc3)n2)c1", "pEC50": 7.50}
{"SMILES CODE": "COc1ccc(-c2c(-c3ccnc(Nc4cccc(N5CCN(CCO)CC5)c4)n3)sc3nccc(=O)n23)cc1Cl", "pEC50": 7.08}
{"SMILES CODE": "O=c1ccnc2sc(-c3ccnc(Nc4cccc(N5CCN(CCO)CC5)c4)n3)c(-c3ccccc3Cl)n12", "pEC50": 7.55}

A = CCc1cc(=O)n2c(-c3ccccc3)c(-c3ccnc(Nc4cccc(N5CCN(CCO)CC5)c4)n3)sc2n1
B = Cc1nc2sc(-c3ccnc(Nc4cccc(N5CCN(CCO)CC5)c4)n3)c(-c3ccccc3)n2c(=O)c1C
Q: Which numeric pEC50 is bigger, that of A or that of B ? Mark your selection by writing its label.
Ans: A
(A: 7.40, B: 6.85)

I = O=c1ccnc2sc(-c3ccnc(Nc4cccc(N5CCN(CCO)CC5)c4)n3)c(-c3ccc(Cl)cc3)n12
II = COc1ccc(-c2c(-c3ccnc(Nc4cccc(S(N)(=O)=O)c4)n3)sc3nccc(=O)n23)cc1
Q: For the pair I and II , which entry has the numerically smaller recorded pEC50? Lab note: record the label of whichever item you select.
Ans: II

----------
pIC50: −log10 of the molar value.
// each record: one item and its pIC50 for DDR1 (Homo sapiens, UniProt Q08345)
MEASURE: pIC50

Check out these entries, answers already filled in.
{"SMILES CODE": "CC(C)c1cc(=O)n2c(-c3ccccc3)c(-c3ccnc(Nc4cccc(N5CCN(CCO)CC5)c4)n3)sc2n1", "TARGET UNDER TEST": "DDR1 (Homo sapiens, UniProt Q08345)", "pIC50": 7.90}
{"SMILES CODE": "O=c1ccnc2sc(-c3ccnc(Nc4cccc(N5CCN(CCO)CC5)c4)n3)c(-c3ccccc3)n12", "TARGET UNDER TEST": "DDR1 (Homo sapiens, UniProt Q08345)", "pIC50": 7.81}

I = COc1cccc(-c2c(-c3ccnc(Nc4cccc(N5CCN(CCO)CC5)c4)n3)sc3nccc(=O)n23)c1
II = COc1ccc(-c2c(-c3ccnc(Nc4cccc(S(N)(=O)=O)c4)n3)sc3nccc(=O)n23)cc1
III = O=c1ccnc2sc(-c3ccnc(Nc4cccc(N5CCN(CCO)CC5)c4)n3)c(C3CCOCC3)n12
Q: Put these in order: smallest pIC50 first, largest last. Ranked list of labels, please, in the requested order.
Ans: III, I, II
